The entries below are paired with their reported pIC50.
biological target: cytochrome P450 2C9-isoenzyme (Homo sapiens (Human), UniProt P11712); test: Inhibition of CYP-2C9 (diclofenac hydroxylation, human liver microsomes); assay type: in vitro ADME; settings: diclofenac 10 μM, 37° C.
Sequence (P11712 whole entry): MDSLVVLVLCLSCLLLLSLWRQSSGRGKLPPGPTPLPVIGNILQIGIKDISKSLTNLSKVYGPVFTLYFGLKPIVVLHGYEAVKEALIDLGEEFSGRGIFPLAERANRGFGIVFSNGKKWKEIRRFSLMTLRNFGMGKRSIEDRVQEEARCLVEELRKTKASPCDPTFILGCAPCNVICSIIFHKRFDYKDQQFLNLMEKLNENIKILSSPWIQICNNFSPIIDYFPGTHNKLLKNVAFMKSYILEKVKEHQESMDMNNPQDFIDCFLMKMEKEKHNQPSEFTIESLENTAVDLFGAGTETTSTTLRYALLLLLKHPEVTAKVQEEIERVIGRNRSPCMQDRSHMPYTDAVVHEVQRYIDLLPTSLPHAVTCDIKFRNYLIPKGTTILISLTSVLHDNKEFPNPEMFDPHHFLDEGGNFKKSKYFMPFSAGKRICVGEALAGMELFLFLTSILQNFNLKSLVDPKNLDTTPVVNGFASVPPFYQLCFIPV
pIC50: −log10 of the molar value.

molecule	target.system	relation.symbol	pIC50
COc1ccc(-c2cccc3c2CC[C@H]3Nc2ccc([C@H]3C[C@@H]3C(=O)O)nc2)cc1F [Example 8]	cytochrome P450 2C9-isoenzyme (Homo sapiens (Human), UniProt P11712)	<	4.30
Cc1cc(-c2ccn(C)c(=O)c2)cc(C)c1-c1ccc(F)c2c1CC[C@H]2Nc1ccc([C@H]2C[C@@H]2C(=O)O)nc1 [Example 29]	cytochrome P450 2C9-isoenzyme (Homo sapiens (Human), UniProt P11712)	<	4.30
Cc1cc(-c2nnn(C)n2)cc(C)c1-c1ccc(F)c2c1CC[C@H]2Nc1ccc([C@H]2C[C@@H]2C(=O)O)nc1 [Example 30]	cytochrome P450 2C9-isoenzyme (Homo sapiens (Human), UniProt P11712)	<	4.30
Cc1cnc(-c2cc(C)c(-c3ccc(F)c4c3CC[C@H]4Nc3ccc([C@H]4C[C@@H]4C(=O)O)nc3)c(C)c2)nc1 [Example 21]	cytochrome P450 2C9-isoenzyme (Homo sapiens (Human), UniProt P11712)	=	4.44
Cc1cc(OCC2(C)COC2)cc(C)c1-c1ccc(F)c2c1CC[C@H]2Nc1ccc([C@H]2C[C@@H]2C(=O)O)nc1 [Example 15]	cytochrome P450 2C9-isoenzyme (Homo sapiens (Human), UniProt P11712)	<	4.30
N#CC1(c2ccccc2-c2ccc(F)c3c2CC[C@H]3Nc2ccc([C@H]3C[C@@H]3C(=O)O)nc2)CC1 (mixture of isomers) [Example 25]	cytochrome P450 2C9-isoenzyme (Homo sapiens (Human), UniProt P11712)	=	4.40
COc1cc(-c2cc(C)c(-c3ccc(F)c4c3CC[C@H]4Nc3ccc([C@H]4C[C@@H]4C(=O)O)nc3)c(C)c2)ccn1 [Example 22]	cytochrome P450 2C9-isoenzyme (Homo sapiens (Human), UniProt P11712)	=	4.72

Values from patent US10125101B2
